Just for reference, patent US20160185837A1 is where these values come from.

Target: T1, mouse GIP receptor (mouse) (UniProt Q0P543)
T1 sequence (looked up): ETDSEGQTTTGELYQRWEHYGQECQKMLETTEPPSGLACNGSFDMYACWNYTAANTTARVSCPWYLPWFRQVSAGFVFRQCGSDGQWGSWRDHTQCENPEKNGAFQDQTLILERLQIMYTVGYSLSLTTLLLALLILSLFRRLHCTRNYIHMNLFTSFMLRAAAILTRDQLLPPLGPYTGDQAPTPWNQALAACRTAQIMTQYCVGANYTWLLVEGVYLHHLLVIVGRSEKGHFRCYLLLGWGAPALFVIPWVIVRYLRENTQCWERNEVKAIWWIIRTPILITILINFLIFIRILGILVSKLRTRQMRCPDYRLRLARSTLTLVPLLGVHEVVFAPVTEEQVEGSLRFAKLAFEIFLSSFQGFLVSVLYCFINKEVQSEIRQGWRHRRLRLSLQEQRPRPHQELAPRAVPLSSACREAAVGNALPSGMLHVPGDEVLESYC
Assay: cell-based or functional assay
assay metric: cAMP EC50 (nM)
Numbers only, in nM.

Record excerpt, results attached:
- binder: "IP333 (Fc fusion) YSEGTFISDYSIALAAAAQQDFVNWLLKGGGGGGGSGGGGSGGGGSGGGGSGGGGSGGGGSA"
  cAMP EC50 [nM]: 0.019
- binder: "IP402 (Fc fusion) YSEGTFISDYSIAMDKIHQQDFVNWLLAQKGSGGGGSGGGGSGGGGSGGGGSGGGGSGGGGSGGGGSACPPC"
  cAMP EC50 [nM]: 0.033
- binder: "IP338 (Fc fusion) YSEGTFISDYSIAMDKIHQQDFVNWLLAQKGGGGGSGGGGSGGGGSGGGGSGGGGSGGGGSGGGGSGGGGSAN"
  cAMP EC50 [nM]: 0.012
- binder: "IP408 (Fc fusion) YSEGTHTSDLRILLERQAIDEFIAKLLKGGGSGGGGSGGGGSGGGGSGGGGSGGGGSGGGGSGGGGSACPPC"
  cAMP EC50 [nM]: 0.38
- binder: "IP380 (Fc fusion) YSEGTFTSDYSKLLEEEAVRLFIEFLLAGGGGGGSGGGGSGGGGSGGGGSATHTCPPC"
  cAMP EC50 [nM]: 6.6
- binder: "IP420 (Fc fusion) YSEGTFTSDYSKLLEEEATRLFIEWLLAGGGGGGSGGGGSGGGGSGGGGSATHTCPPC"
  cAMP EC50 [nM]: 2.6
- binder: "IP306 (Fc fusion) YSEGTFTSDYSKLLERQAIDEFIAWLLKGGAAAGGSGSTASSGSGSATGGGGAATHTCPPC"
  cAMP EC50 [nM]: 0.25
- binder: "IP364 (Fc fusion) YSEGTFTSDFSKLLERQAIDEFIAWLLKGGAAAGGSGSTASSGSGSATGGGGAATHTCPPC"
  cAMP EC50 [nM]: 0.5

Provide cAMP EC50 values for the following items, in order.
1. IP314 (Fc fusion) YSEGTFISDYSKLLAAAAVRDFVNWLLAGGGGGGGSGGGGSGGGGSGGGGSATHTCPPC
2. IP351 (Fc fusion) YSEGTFISDYSIAMDKIHQQDFVNWLLAQKPSSGAPPPSGGGGSGGGGSGGGGSGGGGSACPPC
3. IP373 (Fc fusion) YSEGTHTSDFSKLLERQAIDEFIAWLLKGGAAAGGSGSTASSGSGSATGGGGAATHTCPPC

**A:**
[15, 0.0098, 3.2]
